Hello, the source for this data is patent US9085806B2, in case you need it.

Tested on: Klebsiella pneumoniae Strain ID 301008
experimental.details: Antimicrobial susceptibility testing, broth microdilution (CLSI)
Format: cell-based
cond: Strain ID 301008 KLEPNEP, Mueller-Hinton broth, read-out: minimum inhibition concentration (MIC)
// reported MIC for each item listed

# annotated cases, reported MIC shown
INSERT INTO assay_data (smiles_data, measurement_type, measurement) VALUES
  ('C[C@@H](O)[C@H]1C(=O)N2C(C(=O)O)=C(SCCN=CN)C[C@H]12', 'MIC', '≤ 2 µg/mL'),
  ('CO/N=C(\C(=O)N[C@@H]1C(=O)N2C(C(=O)O)=C(COC(C)=O)CS[C@H]12)c1csc(N)n1', 'MIC', '≤ 0.25 µg/mL');

Incoming: Given CC(C)(O/N=C(\C(=O)N[C@@H]1C(=O)N2C(C(=O)[O-])=C(C[n+]3ccccc3)CS[C@H]12)c1csc(N)n1)C(=O)O , state its recorded MIC.
Outgoing: ≤ 0.25 µg/mL

Incoming: Try CC1(C)S[C@@H]2[C@H](NC(=O)[C@H](N)c3ccccc3)C(=O)N2[C@H]1C(=O)O next.
Outgoing: 16 µg/mL
